- Assay target: UniProt Q9HCG7
- Sequence (Q9HCG7 1-927): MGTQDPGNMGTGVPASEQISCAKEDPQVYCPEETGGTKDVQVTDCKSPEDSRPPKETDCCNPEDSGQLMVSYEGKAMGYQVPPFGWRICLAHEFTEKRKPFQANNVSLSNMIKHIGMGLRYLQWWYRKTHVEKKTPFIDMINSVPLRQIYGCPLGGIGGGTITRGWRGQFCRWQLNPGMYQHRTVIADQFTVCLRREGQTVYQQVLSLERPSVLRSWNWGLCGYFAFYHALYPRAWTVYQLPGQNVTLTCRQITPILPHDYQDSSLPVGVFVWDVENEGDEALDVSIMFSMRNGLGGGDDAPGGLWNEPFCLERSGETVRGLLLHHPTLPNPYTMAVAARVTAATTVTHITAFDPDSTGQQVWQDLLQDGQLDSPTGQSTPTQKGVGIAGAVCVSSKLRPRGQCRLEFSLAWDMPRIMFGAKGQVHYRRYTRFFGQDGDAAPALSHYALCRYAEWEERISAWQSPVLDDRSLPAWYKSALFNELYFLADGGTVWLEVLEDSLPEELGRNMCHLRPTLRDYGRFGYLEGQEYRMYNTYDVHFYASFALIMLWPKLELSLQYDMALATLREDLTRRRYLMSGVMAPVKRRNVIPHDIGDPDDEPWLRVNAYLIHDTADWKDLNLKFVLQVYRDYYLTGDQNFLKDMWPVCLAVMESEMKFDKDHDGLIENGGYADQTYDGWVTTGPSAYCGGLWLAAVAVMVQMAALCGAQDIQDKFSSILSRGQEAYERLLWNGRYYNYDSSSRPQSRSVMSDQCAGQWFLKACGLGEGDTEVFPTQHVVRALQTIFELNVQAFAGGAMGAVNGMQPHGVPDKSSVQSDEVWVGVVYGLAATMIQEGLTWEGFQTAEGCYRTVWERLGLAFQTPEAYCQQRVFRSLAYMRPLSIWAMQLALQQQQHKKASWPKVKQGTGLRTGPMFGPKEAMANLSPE
- Protocol description: 4MU fluorogenic substrate assay for apparent IC50, GBA2
- Type: biochemical
- Design: expressed in transfected cells; host or cells: HEK293T GBA1/GBA2 KO (CRISPR/Cas9), GBA2 overexpressed
- Details: Apparent IC50 GBA2, 30 min pre-incubation; 4MU-β-D-Glc
pIC50: −log10 of the molar value.
Endpoint name: pIC50

Reported pIC50 for O=C(CCCC[C@@H]1SC[C@@H]2NC(=O)N[C@@H]21)NCc1cn(CCCCCCCCN2[C@@H]3[C@H](CO)[C@@H](O)[C@H](O)[C@@H]32)nn1 (stereo partly shown) was < 5.10
